Data provenance is patent US8753841B2.

Please respond with reported Produced peptide for every item in the list.
Test system: enzyme derived from Sphingobacterium sp. strain FERM BP-8124
Assay: Substrate specificity of enzyme derived from Sphingobacterium sp.
Format: biochemical
Settings: Table 15-4; carboxy component 100 mM, amine component 150 mM, 0.33 units enzyme, pH 9.0, 25° C., 1.5 hours
Residues, ends and D or L forms follow the SMILES beside them.
Answers are plain numbers, in mM.

Please review the following examples before continuing.
compound	Produced peptide, mM
CNC(=O)[C@@H](N)[C@@H](C)O	0.3
C[C@H](N)C(=O)N[C@@H](CCC(N)=O)C(=O)O [L-Ala-L-Gln, L-alanyl-L-glutamine] (H-Ala-Gln-OH)	0.3
CNC(=O)CN	1.0

# lookup: enzyme derived from Sphingobacterium sp. strain FERM BP-8124 Produced peptide, key = CNC(=O)C(C)N (stereo not shown)
0.6
